test system: adult cat fleas (Ctenocephalides felis); assay: Ctenocephalides felis in-vitro contact test, adult cat flea; type: in vivo; conditions: 5 μg/cm^2 (=500 g/ha), after 48 hours, read-out: efficacy (fleas dead or moribund)
RECORDED ENDPOINT: pest or weed control at 5 µg/cm2, 500 g/ha (%)
Quick note: give the figure in %, leave out the unit.

Before answering, review these 2 worked examples.
- CC(NC(=O)c1cc(Cl)cc(C(F)(F)F)c1)c1nccnc1-c1ncccn1 (racemic): 80
- CC(NC(=O)c1cc(C(F)(F)F)cc(C(F)(F)F)c1)c1nccnc1-c1ncc(C(=O)N(C)CC(F)(F)F)s1 (racemic): 100

Next, consider the following molecule.
Query: So what's the measured pest or weed control at 5 µg/cm2, 500 g/ha for this one? CC(NC(=O)c1cc(Br)cc(OC(F)(F)F)c1)c1nccnc1-c1ncc(C(=O)N2CCOCC2)s1 (racemic)
Response: 100
